Structures can show the parent of a compound that is named as a salt.
Measure: melting point (°C)

1) COc1ccc2c(n1)C(CCCN1CCNCC1)(c1ccccc1F)C(=O)N2S(=O)(=O)c1cccc(Cl)c1 (stereo not drawn) (as salt: HCl) = 177

1. COc1ccc2c(n1)C(CCCCN1CCNCC1)(c1ccccc1F)C(=O)N2S(=O)(=O)c1ccc(OC(C)C)cc1 (stereo not drawn) (as salt: HCl) [compound 14]
2. COc1ccc2c(n1)C(CCCN1CCN(C)CC1)(c1ccccc1F)C(=O)N2S(=O)(=O)c1ccc(OC(C)C)cc1 (stereo not drawn) (as salt: HCl)
Sorting ascending by melting point, which comes first: 1 or 2 ? Indicate your choice by writing its label.
1
(1: 133 °C, 2: 190 °C)

Entry source: patent US8324214B2
